Reported apparent KD of MS2 coat protein values for a set of sequences
System: MS2 coat protein
assay.name: apparent KD of MS2 coat protein; higher = weaker reporter binding
assay.conditions: Eterna round: R107; input ligand: tryptophan 2.4 mM
measured.endpoint: apparent KD of MS2 coat protein

>>> test_result("AUAUUUAACGGAAGGAGCGCGGAAUAAUAAGUGGGUAAACAUGAGGAUCACCCAUGUAAACCGCAGGUAGGUCGCCGAAUAAUAA [AstrosEXyARgB#4]")
"0.0684 µM"
>>> test_result("UGUAUGGACUGAAGGAGCGGGUUGAUAACCUGAGGAUCACCCAGGUAAAAGGCGAAAGCCACCCAGGUAGGUCGCAGUCCAUACU")
"0.02 µM"
>>> test_result("AGCCGGAUUACGGCCGCCACUGUAGACGUGACGAAAGUCGCGUCAACAUGAGGAUCACCCAUGUACAGGACCGGGUGGUCCGGCG [Omei Trp B SS A v1]")
"0.00602 µM"
>>> test_result("GUAUGAGUUGACUGUGAGACUGGCGUGGAAGGAGCGCACGGAGGUGCAGGUAGGUCGCCACAUGAGGAUCACCCAUGUCAGGCCG [Ceedtila]")
"0.053 µM"
>>> test_result("GACAUGAGGAUCACCCAUGUACCGCGAGAAGGAGCGCGGAUAAACGCAGGUAGGUCGCUCGUGGGCUCACAUUCAAUCGUAAGCU [Azaesisma]")
"0.0777 µM"
>>> test_result("UGUAACAUGAGGAUCACCCAUGUGAGUGAUACCAGACUAGUGUUAGUCCCUUGGCAGCACGCUGGGCGAGUGUGUAGUCUAUGCG [Same State - Theophylline A (Freestyle 16)]")
"0.105 µM"
